Recorded values, source patent US20050154010A1.

test system: RPMI8226; assay: MTT assay, cell viability; format: cell-based; conditions: RPMI8226, Myeloma, 72 hours exposure
Value Kind: pIC50
Please report pIC50 as the negative decimal logarithm of the molar concentration, giving only the number.

IN: # lookup: pIC50 of OC(c1cc(C(F)(F)F)nc2c(C(F)(F)F)cccc12)C1CCCCN1 (single isomer, unassigned; (-)) [(−)Mefloquine]
OUT: 4.82
